The values you see were collected from the Human Domainome abundance scans (Beltran et al. 2025).

B1: Gamma-crystallin C, residues 91 to 170; numbered along this chain, P07315 (parent)
chain: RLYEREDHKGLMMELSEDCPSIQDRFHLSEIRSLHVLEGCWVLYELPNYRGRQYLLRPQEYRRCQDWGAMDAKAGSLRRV

- Variants of: B1
- Test Summary: abundance fitness (aPCA) (normalised: wild type 0, dead -1); higher = more abundant; growth selection in yeast, the domain comes from the species named
- Settings: Homo sapiens
Class boundaries, taken from values of abundance fitness, are as follows: class 0 = under -0.6, class 1 = from -0.6 up to -0.2, class 2 = -0.2 and over

M12S | class 2
P20W | class 1

Switching to the query record.
Category of R50L , please.
class 2
